# TARGET_OR_SYSTEM: human TYK2 (JH2domain-pseudokinase) (Homo sapiens (Human), UniProt P29597)
# Sequence (P29597 556-888): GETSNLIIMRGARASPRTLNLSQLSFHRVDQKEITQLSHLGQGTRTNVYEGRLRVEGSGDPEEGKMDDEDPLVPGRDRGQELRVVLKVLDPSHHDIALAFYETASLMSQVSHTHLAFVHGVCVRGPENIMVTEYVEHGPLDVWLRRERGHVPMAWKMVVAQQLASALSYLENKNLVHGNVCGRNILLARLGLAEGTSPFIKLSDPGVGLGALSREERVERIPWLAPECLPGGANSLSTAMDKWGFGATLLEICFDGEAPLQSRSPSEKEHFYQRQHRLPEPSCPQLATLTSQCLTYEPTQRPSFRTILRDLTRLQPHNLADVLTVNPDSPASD
# PROTOCOL_DETAILS: TYK2 JH2 Domain Binding Assay (KINOMEscan, DiscoveRx)
# MEASUREMENT_SETUP: 11-point dilution, duplicate
pKd: −log10 of the molar value.
In this section we review reported pKd values for a set of compounds.

// worked examples, pKd included
CS(=O)(=O)c1cc(C2CCC2)ccc1Nc1cc(NC(=O)[C@@H]2CC2(F)F)nc2[nH]c(C(F)F)nc12 ... < 8.00
COCc1nc(-c2ccc(Nc3cc(NC(=O)C4CC4)nc4[nH]c(C)nc34)c(S(C)(=O)=O)c2)sc1C ... > 10.00
Cc1nc2c(Nc3ccccc3P(C)(C)=O)cc(NC(=O)C3CC3)nc2[nH]1 ... < 8.00
Cc1cn(C)c(-c2ccc(Nc3cc(NC(=O)C4CC4)nc4[nH]c(C)nc34)c(N(C)S(C)(=O)=O)c2)n1 ... 9.00 to 9.30
CS(=O)(=O)c1cc([C@@H]2CCCO2)ccc1Nc1cc(NC(=O)[C@@H]2CC2(F)F)nc2[nH]c(C(F)F)nc12 ... 9.00 to 9.30
Cn1cnc(-c2ccc(Nc3cc(NC(=O)[C@@H]4C[C@@H]4F)nc4[nH]c(C(F)F)nc34)c(S(C)(=O)=O)c2)c1 ... 9.30 to 10.00
Cc1csc(-c2ccc(Nc3cc(Nc4cccc(C#N)n4)nc4[nH]c(C)nc34)c(S(C)(=O)=O)c2)n1 ... 9.30 to 10.00
COc1c(Nc2cc(Nc3cnc(C(C)(C)OC)c(C)n3)nc3[nH]c(C(F)F)nc23)cccc1-c1nnn(C)n1 ... 8.00 to 9.00

[ask] Record request: pKd value, item COC(C)c1ccc(Nc2cc(NC(=O)C3CC3)nc3[nH]c(C)nc23)c(S(C)(=O)=O)c1 (stereo not drawn)
[reply] 9.30 to 10.00

[ask] Also, COc1c(Nc2cc(NC(=O)C3C[C@@H]3F)nc3[nH]c(C)nc23)cccc1-c1ncn(C)n1 (stereo in doubt) please.
[reply] 9.00 to 9.30

[ask] Now this one: CN(c1cc(-c2cnn(C)c2)ccc1Nc1cc(NC(=O)[C@@H]2C[C@@H]2F)nc2[nH]c(C(F)F)nc12)S(C)(=O)=O (stereo in doubt) [I-235]
[reply] > 10.00

[ask] # iterate: Cc1nc2c(Nc3ccc(-c4c(C)nn(C)c4C)cc3S(C)(=O)=O)cc(NC(=O)C3CC3)nc2[nH]1
[reply] 9.30 to 10.00

[ask] Similarly, Cc1nc2c(Nc3ccc(-c4ccn(C)n4)cc3S(C)(=O)=O)cc(NC(=O)[C@@H]3C[C@@H]3F)nc2[nH]1 [I-224] ?
[reply] > 10.00

[ask] Please answer likewise for COc1c(Nc2cc(NC(=O)C3CC3)nc3[nH]c(C(F)F)nc23)ccc(-c2nn(C)cc2C)c1F
[reply] < 8.00

[ask] Another compound to look at: Cc1ncc(Nc2cc(Nc3ccccc3N(C)S(C)(=O)=O)c3nc(C(F)F)[nH]c3n2)nc1C
[reply] 9.30 to 10.00

====

# TARGET_OR_SYSTEM: human TYK2 (JH2domain-pseudokinase) (Homo sapiens (Human))
# PROTOCOL_DETAILS: TYK2 JH2 Domain Binding Assay (KINOMEscan, DiscoveRx)
# MEASUREMENT_SETUP: 11-point dilution, duplicate
pKd: −log10 of the molar value.
MEASURED_PARAMETER: pKd

[ask] Can you share its pKd? I mean this compound: Cc1nc2c(Nc3ccc(-c4cnn(C)c4)cc3N(C)S(C)(=O)=O)cc(NC(=O)[C@H]3C[C@@H]3F)nc2[nH]1
[reply] 9.00 to 9.30

[ask] Cool, now COc1c(Nc2cc(NC(=O)C3CC3)nc3[nH]c(C)nc23)cccc1-n1cnc(C)n1
[reply] 8.00 to 9.00

[ask] Try the compound Cc1nc2c(Nc3ccc([C@H]4CCOC4)cc3S(C)(=O)=O)cc(NC(=O)C3CC3)nc2[nH]1
[reply] 8.00 to 9.00

[ask] Moving on to the next compound: CS(=O)(=O)c1cc([C@H]2CCC(F)(F)CO2)ccc1Nc1cc(NC(=O)C2CC2)nc2[nH]c(C(F)F)nc12
[reply] 8.00 to 9.00

[ask] Also need COc1c(Nc2cc(NC(=O)C3CC3)nc3[nH]c(C(F)F)nc23)cccc1C(=O)O , thanks.
[reply] 8.00 to 9.00

[ask] Another compound to look at: Cc1nc2c(Nc3ccc([C@H]4CCCO4)cc3S(C)(=O)=O)cc(Nc3cccc(C#N)n3)nc2[nH]1
[reply] > 10.00

[ask] Same thing, different compound: CS(=O)(=O)c1cc([C@@H]2CCCCO2)ccc1Nc1cc(NC(=O)C2CC2)nc2[nH]c(C(F)F)nc12
[reply] 9.30 to 10.00

[ask] Same question for CN(c1cc(-c2cncn2C)ccc1Nc1cc(NC(=O)[C@H]2C[C@@H]2F)nc2[nH]c(C(F)F)nc12)S(C)(=O)=O please.
[reply] 9.30 to 10.00

[ask] Also, Cc1cc(Nc2cc(Nc3ccc(C4CC4)cc3S(C)(=O)=O)c3nc(C(F)F)[nH]c3n2)nc(C)n1 please.
[reply] 9.30 to 10.00

[ask] // query: Cc1nc2c(Nc3ccc(-c4cncn4C)cc3N(C)S(C)(=O)=O)cc(NC(=O)[C@@H]3C[C@@H]3F)nc2[nH]1
[reply] 8.00 to 9.00

[ask] Next record, please: Cc1nn(C)c(C)c1-c1ccc(Nc2cc(Nc3cccc(C#N)n3)nc3[nH]c(C(F)F)nc23)c(S(C)(=O)=O)c1
[reply] 9.30 to 10.00

[ask] // next record COc1c(Nc2cc(Nc3ccc(N4CCCC4=O)c(C#N)n3)nc3[nH]c(C(F)F)nc23)cccc1-c1nnn(C)n1
[reply] 9.30 to 10.00

[ask] Next: COCCCn1ccc(-c2ccc(Nc3cc(NC(=O)C4CC4)nc4[nH]c(C(F)F)nc34)c(S(C)(=O)=O)c2)n1
[reply] 9.30 to 10.00

[ask] Next up: Cc1nc2c(Nc3ccc(-c4ncc(C)n4C)cc3S(C)(=O)=O)cc(Nc3cccc(C#N)n3)nc2[nH]1
[reply] 9.30 to 10.00

[ask] Cool, now CS(=O)(=O)c1cc(C2CCC2)ccc1Nc1cc(NC(=O)[C@H]2C[C@H]2F)nc2[nH]c(C(F)F)nc12
[reply] 8.00 to 9.00

[ask] Repeat for the following compound: Cc1ccc(Nc2cc(NC(=O)C3CC3)nc3[nH]c(C(F)F)nc23)c(N(C)S(C)(=O)=O)c1
[reply] 9.30 to 10.00

[ask] Another: Cc1nc2c(Nc3ccc(C4CCC(C)(C)CO4)cc3S(C)(=O)=O)cc(Nc3cnc(C)c(C)n3)nc2[nH]1 (centres unmarked)
[reply] 9.00 to 9.30

[ask] Queued: CN(c1cc(-c2cnn(C)c2)ccc1Nc1cc(NC(=O)[C@@H]2CC2(F)F)nc2[nH]c(C(F)F)nc12)S(C)(=O)=O
[reply] 9.00 to 9.30

[ask] And for Cc1nc2c(Nc3ccc(C4CC4)cc3S(C)(=O)=O)cc(Nc3cc4n(n3)CCOC4)nc2[nH]1 ?
[reply] > 10.00

[ask] What do we get for CS(=O)(=O)c1cc([C@H]2CCCO2)ccc1Nc1cc(NC(=O)C2CC2(F)F)nc2[nH]c(C(F)F)nc12 (some centres unmarked) ?
[reply] 8.00 to 9.00

[ask] Now give it for CN(c1cc(-c2cncn2C)ccc1Nc1cc(NC(=O)[C@@H]2CC2(F)F)nc2[nH]c(C(F)F)nc12)S(C)(=O)=O too.
[reply] 9.30 to 10.00

[ask] Okay, and Cc1c(-c2ccc(Nc3cc(Nc4ccc(C(C)C)c(C#N)n4)nc4[nH]c(C(F)F)nc34)c(S(C)(=O)=O)c2)cnn1C ?
[reply] 9.30 to 10.00

[ask] Also check Cc1cc(-c2ccc(Nc3cc(NC(=O)C4CC4)nc4[nH]c(C(F)F)nc34)c(S(C)(=O)=O)c2)nn1C
[reply] > 10.00

[ask] Continue with Cc1nc2c(Nc3ccc(-c4ncc(C)n4C)cc3N(C)S(C)(=O)=O)cc(NC(=O)C3CC3)nc2[nH]1
[reply] 9.30 to 10.00

====

# TARGET_OR_SYSTEM: human TYK2 (JH2domain-pseudokinase) (Homo sapiens (Human), UniProt P29597)
# PROTOCOL_DETAILS: TYK2 JH2 Domain Binding Assay (KINOMEscan, DiscoveRx)
# MEASUREMENT_SETUP: 11-point dilution, duplicate
pKd: −log10 of the molar value.
// values below are reported pKd

These recorded examples may help you get a feel for the data.
COc1cc(-c2cncn2C)ccc1Nc1cc(Nc2cnc(C)c(C)n2)nc2[nH]c(C(F)F)nc12 ... < 8.00
Cn1cnc(-c2ccc(Nc3cc(NC(=O)C4CC4)nc4[nH]c(C(F)F)nc34)c(S(C)(=O)=O)c2)c1 ... 9.30 to 10.00
CS(=O)(=O)c1cc(C(F)(F)F)ccc1Nc1cc(NC(=O)C2CC2)nc2[nH]c(C(F)F)nc12 ... 8.00 to 9.00
Cc1nc2c(Nc3ccc(F)cc3S(C)(=O)=O)cc(Nc3cccc(C#N)n3)nc2[nH]1 ... 9.30 to 10.00
Cc1ccc(Nc2cc(Nc3ccccc3N(C)S(C)(=O)=O)c3nc(C(F)F)[nH]c3n2)nc1C#N ... > 10.00

[ask] Requested read-out: pKd. Entry: Cc1nc2c(Nc3ccc(C4CCC4)cc3P(C)(C)=O)cc(NC(=O)C3CC3)nc2[nH]1
[reply] 9.30 to 10.00

[ask] Follow-up item: COc1c(Nc2cc(Nc3cc(F)c(N4CC(OC)C4)cn3)nc3[nH]c(C(F)F)nc23)cccc1-c1nc(C)nn1C
[reply] < 8.00

[ask] Please answer likewise for COc1ccccc1Nc1cc(NC(=O)C2CC2)nc2[nH]c(C(F)F)nc12
[reply] < 8.00

Just for reference, patent US10647713B2 is where these values come from.
